Reference for the values: the SangsterLogP compilation

# runDescription: method code SF-AS, from DOI: 10.1021/jm00146a003, PMID: 4020837
# conditionContext: pH 7.4
logD vs 0.9: less than gives 1.0; not less than gives 0.0.

Example entries begin here.
In [3]: df
Out[3]:
                                   compound  grouplabel
0                   Cn1cnc(I)c1[N+](=O)[O-]         0.0
1     O=C(Cn1cnc([N+](=O)[O-])c1I)Nc1cccnc1         1.0
2  COCC(O)Cn1cnc([N+](=O)[O-])c1I (centres undefined)         1.0
3                   Cn1cnc([N+](=O)[O-])c1I         0.0

Check if logD falls below 0.9 for CCOC(=O)Cn1cnc([N+](=O)[O-])c1I .
1.0

Note, next up: O=[N+]([O-])c1nc[nH]c1I
1.0

Note, next up: CCOC(=O)Cn1cnc(I)c1[N+](=O)[O-]
0.0

Note, next up: O=C(Cn1cnc([N+](=O)[O-])c1I)NCc1ccc[n+]([O-])c1
1.0
